Target: T1, recombinant CD47 (recCD47), SinoBiological 12283-H27H-B, biotinylated (human, UniProt Q08722 19-139, biotinylated (AVI-tag))
T1 construct: Bought protein, 17 kDa; At 17 kDa it can only be a part of it; also called recombinant biotinylated CD47; not shown: C-terminal His- and AVI-tag
T1 sequence (Q08722 19-139 limits assumed): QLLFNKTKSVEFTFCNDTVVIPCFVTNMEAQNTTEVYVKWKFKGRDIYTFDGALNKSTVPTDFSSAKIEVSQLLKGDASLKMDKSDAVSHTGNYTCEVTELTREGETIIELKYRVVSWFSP
Assay: SPR Biacore S200, single-cycle, recCD47 on SA chip 100 RU, antibody as analyte, 25 C, 1:1 model;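 further: antibodies were injected over the captured CD47 at a series of concentrations, and KD was derived as the dissociation rate constant divided by the association rate constant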
Recorded kon by entry
Write the numeric value and follow it with the unit.

Before answering, review these 3 worked examples.
Binder: CO203 humanized IgG4 anti-CD47 antibody (antibody, V domains shown, also called huCO-mAb) VH: QVQLVQSGSELKKPGASVKVSCKASGYTFTNFGMHWVRQAPGQGLKWMGWINTYTGEPTYTDDFKGRFVFSLDTSVSTAYLQISSLKAEDTAVYYCTRGDYRYGDSWGQGTTVTVSS VL: DIVMTQTPLSLSVTPGQPASISCRSSQSLVHSNGKTYLHWYLQKPGQPPQLLIYRVSNRFSGVPDRFSGSGSGTDFTLKISRVEAEDVGVYYCSQSTHVPFTFGQGTKLEIK
kon: 4.8e+06 M⁻¹ s⁻¹
//
Binder: CO202 humanized IgG4 anti-CD47 antibody (antibody, V domains shown, also called huCO-mAb) VH: QVQLVQSGSELKKPGASVKVSCKASGYTFTNFGMHWVRQAPGQGLEWMGWINTYTGEPTYTDDFKGRFVFSLDTSVSTAYLQISSLKAEDTAVYYCTRGDYRYGDSWGQGTTVTVSS VL: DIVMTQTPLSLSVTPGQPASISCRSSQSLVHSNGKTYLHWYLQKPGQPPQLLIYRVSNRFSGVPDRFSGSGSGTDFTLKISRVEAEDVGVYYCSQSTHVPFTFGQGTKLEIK
kon: 5.3e+06 M⁻¹ s⁻¹
//
Binder: CO208 humanized IgG4 anti-CD47 antibody (antibody, V domains shown, also called huCO-mAb) VH: QVQLVQSGSELKKPGASVKVSCKASGYTFTNFGMHWVRQAPGKGLKWMGWINTYTGEPTYTDDFKGRFVFSLDTSVSTAYLQISSLKAEDTAVYYCTRGDYRYGDSWGQGTTVTVSS VL: DIVMTQTPLSLSVTPGQPASISCRSSQSLVHSNGKTYLHWYLQKPGQSPQLLIYRVSNRFSGVPDRFSGSGSGTDFTLKISRVEAEDVGVYYCSQSTHVPFTFGQGTKLEIK
kon: 5e+06 M⁻¹ s⁻¹

Now, please, on to the next binder.
Data request, read-out kon, for CO205 humanized IgG4 anti-CD47 antibody (antibody, V domains shown, also called huCO-mAb) VH: QVQLVQSGSELKKPGASVKVSCKASGYTFTNFGMHWVRQAPGQGLEWMGWINTYTGEPTYTDDFKGRFVFSLDTSVSTAYLQISSLKAEDTAVYYCARGDYRYGDSWGQGTTVTVSS VL: DIVMTQTPLSLSVTPGQPASISCRSSQSLVHSNGKTYLHWYLQKPGQSPQLLIYRVSNRFSGVPDRFSGSGSGTDFTLKISRVEAEDVGVYYCSQSTHVPFTFGQGTKLEIK
8.2e+06 M⁻¹ s⁻¹
